target: NLRP3 (Homo sapiens); assay: THP-1 cells pyroptosis assay; type: cell-based; parameters: Seed THP-1 cells (25,000 cells/well) containing 1.0 μg/ml LPS; host or cells: THP-1; details: LPS 1.0 μg/ml, nigericin 5 μM, resazurin readout, 10 μM top dose (Example 2: top dose of 30 μM)
Sequence (Q96P20 whole entry): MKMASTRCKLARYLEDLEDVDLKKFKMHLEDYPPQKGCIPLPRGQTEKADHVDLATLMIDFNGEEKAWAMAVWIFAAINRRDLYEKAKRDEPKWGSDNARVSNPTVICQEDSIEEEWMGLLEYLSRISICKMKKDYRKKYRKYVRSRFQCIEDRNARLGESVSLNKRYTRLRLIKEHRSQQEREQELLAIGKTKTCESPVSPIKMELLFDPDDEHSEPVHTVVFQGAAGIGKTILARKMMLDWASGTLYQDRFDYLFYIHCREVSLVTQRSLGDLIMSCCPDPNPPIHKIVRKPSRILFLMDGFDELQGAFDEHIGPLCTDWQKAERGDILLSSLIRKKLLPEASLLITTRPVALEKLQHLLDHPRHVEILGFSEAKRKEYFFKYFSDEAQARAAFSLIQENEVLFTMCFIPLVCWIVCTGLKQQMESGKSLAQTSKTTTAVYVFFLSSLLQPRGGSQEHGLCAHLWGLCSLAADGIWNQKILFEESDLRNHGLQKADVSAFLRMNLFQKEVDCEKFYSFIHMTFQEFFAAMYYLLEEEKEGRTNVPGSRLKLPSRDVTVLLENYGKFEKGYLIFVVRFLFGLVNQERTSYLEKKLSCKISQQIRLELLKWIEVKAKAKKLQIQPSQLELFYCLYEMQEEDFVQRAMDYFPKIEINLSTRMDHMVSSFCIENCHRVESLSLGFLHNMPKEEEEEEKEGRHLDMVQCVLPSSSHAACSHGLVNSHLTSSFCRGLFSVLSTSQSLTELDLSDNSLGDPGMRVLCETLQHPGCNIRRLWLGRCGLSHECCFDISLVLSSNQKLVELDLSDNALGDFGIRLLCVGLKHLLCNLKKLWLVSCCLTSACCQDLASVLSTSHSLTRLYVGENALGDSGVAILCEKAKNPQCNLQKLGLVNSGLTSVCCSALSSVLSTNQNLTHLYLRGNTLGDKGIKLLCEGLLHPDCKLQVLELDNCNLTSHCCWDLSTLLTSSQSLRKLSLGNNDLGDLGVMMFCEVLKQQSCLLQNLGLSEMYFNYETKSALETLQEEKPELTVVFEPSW
MEASUREMENT NAME: IC50

Answered cases to consult:
In [3]: df
Out[3]:
                                   molecule  measurement_name  result_value
0  CN(C)C1CCN(S(=O)(=O)c2nnc(Nc3c(C4CCOCC4)ccc4c3CCC4)[nH]2)CC1              IC50    ≤ 10000 nM
1  CC(C)(O)C1CCN(S(=O)(=O)c2nnc(Nc3c4c(cc5c3CCC5)CCC4)[nH]2)C1 (stereo not shown)              IC50     ≤ 1000 nM
2  CN1CCCC12CCN(S(=O)(=O)c1nnc(Nc3c4c(cc5c3CCC5)CCC4)[nH]1)CC2              IC50      ≤ 500 nM

Would you kindly look at the next entry?
Query: Could you tell me which IC50 is on file for `CN(C)CC1CN(S(=O)(=O)c2nnc(Nc3c4c(cc5c3CCC5)CCC4)[nH]2)C1` ?
Response: ≤ 500 nM

----------
The following molecules are shown together with reported IC50 values.
molecular target: UniProtKB Q96P20; assay: Human whole blood IL1β release assay; format: cell-based; details: LPS 1 μg/ml, nigericin 10 μM, IL-1β AlphaLisa, 10 μM top dose (Example 2: top dose of 30 μM), read-out: HWB IC50

Query: Could you tell me which IC50 is on file for `COc1cc(-c2ccc3c(c2Nc2nnc(S(=O)(=O)N4CCC(N(C)C)CC4)[nH]2)CCC3)ccn1` ?
Response: ≤ 1000 nM

Query: Input `Cn1ccc(S(=O)(=O)c2nnc(Nc3c4c(cc5c3CCC5)CCC4)[nH]2)n1`
Response: ≤ 10000 nM

Query: Input `O=S(=O)(c1nnc(Nc2c3c(cc4c2CCC4)CCC3)[nH]1)c1ccccc1F`
Response: ≤ 10000 nM

Query: Input `CC(C)c1cc(F)cc(C(C)C)c1Nc1nnc(S(=O)(=O)N2CC3(CCN(C)C3)C2)[nH]1`
Response: ≤ 500 nM

Query: Input CN1CCC2(CCN(S(=O)(=O)c3nnc(Nc4c5c(cc6c4CCC6)CCC5)[nH]3)C2)C1 (centres unmarked)
Response: ≤ 1000 nM

Query: Input CN1CCCC1CCS(=O)(=O)c1nnc(Nc2c3c(cc4c2CCC4)CCC3)[nH]1 (centres unmarked)
Response: ≤ 5000 nM

Query: Input COc1cc(-c2cc(F)cc(C(C)C)c2Nc2nnc(S(=O)(=O)N3CCC(CN(C)C)C3)[nH]2)ccn1 (centres unmarked)
Response: ≤ 1000 nM

Query: Input `CC(C)(O)C1CN(S(=O)(=O)c2nnc(Nc3c4c(cc5c3CCC5)CCC4)[nH]2)C1`
Response: ≤ 5000 nM

----------
molecular target: UniProt:Q96P20; experiment: THP-1 cells pyroptosis assay; type: cell-based; design: Seed THP-1 cells (25,000 cells/well) containing 1.0 μg/ml LPS; host or cells: THP-1; details: LPS 1.0 μg/ml, nigericin 5 μM, resazurin readout, 10 μM top dose (Example 2: top dose of 30 μM)
MEASUREMENT NAME: IC50

                                   molecule  system_under_test  measurement_name  result_value
0  O=S(=O)(c1nnc(Nc2c3c(cc4c2CCC4)CCC3)[nH]1)N1CCC2(CCCN2C2CC2)CC1 [Example 246]     UniProt:Q96P20              IC50     ≤ 1000 nM
1  Cn1cc(NS(=O)(=O)c2nnc(Nc3c4c(cc5c3CCC5)CCC4)[nH]2)cn1 [Example 99]     UniProt:Q96P20              IC50    ≤ 10000 nM
2  O=S(=O)(c1nnc(Nc2c3c(cc4c2CCC4)CCC3)[nH]1)N1CC(N2CCCCC2)C1 [Example 133]     UniProt:Q96P20              IC50      ≤ 500 nM
3  COc1cc(-c2ccc3c(c2Cc2nnc(S(=O)(=O)N4CCC(CN(C)C)C4)[nH]2)CCC3)ccn1 (centres unmarked) [Example 160]     UniProt:Q96P20              IC50     ≤ 5000 nM
4  NC(=O)c1ccc(S(=O)(=O)c2nnc(Nc3c4c(cc5c3CCC5)CCC4)[nH]2)cc1 [Example 327]     UniProt:Q96P20              IC50     ≤ 5000 nM
5  CNCCCS(=O)(=O)c1nnc(Nc2c3c(cc4c2CCC4)CCC3)[nH]1 [Example 54]     UniProt:Q96P20              IC50     ≤ 1000 nM

Query: Could you tell me which IC50 is on file for O=S(=O)(c1nnc(Nc2c3c(cc4c2CCC4)CCC3)[nH]1)N1CC2(CCN(CC(F)(F)F)C2)C1 [Example 263] ?
Response: ≤ 5000 nM

Query: Input CN1CCC2(C1)CN(S(=O)(=O)c1nnc(Nc3c(-c4ccnc(OC(F)F)c4)ccc4c3CCO4)[nH]1)C2 [Example 212]
Response: ≤ 500 nM
